- measured.on: ROCK2 (Homo sapiens, UniProt O75116)
- Construct: T7 phage fusion (kinase-tagged phage) or DNA tag for qPCR detection
- Sequence (O75116 whole entry, the tested form may be a part): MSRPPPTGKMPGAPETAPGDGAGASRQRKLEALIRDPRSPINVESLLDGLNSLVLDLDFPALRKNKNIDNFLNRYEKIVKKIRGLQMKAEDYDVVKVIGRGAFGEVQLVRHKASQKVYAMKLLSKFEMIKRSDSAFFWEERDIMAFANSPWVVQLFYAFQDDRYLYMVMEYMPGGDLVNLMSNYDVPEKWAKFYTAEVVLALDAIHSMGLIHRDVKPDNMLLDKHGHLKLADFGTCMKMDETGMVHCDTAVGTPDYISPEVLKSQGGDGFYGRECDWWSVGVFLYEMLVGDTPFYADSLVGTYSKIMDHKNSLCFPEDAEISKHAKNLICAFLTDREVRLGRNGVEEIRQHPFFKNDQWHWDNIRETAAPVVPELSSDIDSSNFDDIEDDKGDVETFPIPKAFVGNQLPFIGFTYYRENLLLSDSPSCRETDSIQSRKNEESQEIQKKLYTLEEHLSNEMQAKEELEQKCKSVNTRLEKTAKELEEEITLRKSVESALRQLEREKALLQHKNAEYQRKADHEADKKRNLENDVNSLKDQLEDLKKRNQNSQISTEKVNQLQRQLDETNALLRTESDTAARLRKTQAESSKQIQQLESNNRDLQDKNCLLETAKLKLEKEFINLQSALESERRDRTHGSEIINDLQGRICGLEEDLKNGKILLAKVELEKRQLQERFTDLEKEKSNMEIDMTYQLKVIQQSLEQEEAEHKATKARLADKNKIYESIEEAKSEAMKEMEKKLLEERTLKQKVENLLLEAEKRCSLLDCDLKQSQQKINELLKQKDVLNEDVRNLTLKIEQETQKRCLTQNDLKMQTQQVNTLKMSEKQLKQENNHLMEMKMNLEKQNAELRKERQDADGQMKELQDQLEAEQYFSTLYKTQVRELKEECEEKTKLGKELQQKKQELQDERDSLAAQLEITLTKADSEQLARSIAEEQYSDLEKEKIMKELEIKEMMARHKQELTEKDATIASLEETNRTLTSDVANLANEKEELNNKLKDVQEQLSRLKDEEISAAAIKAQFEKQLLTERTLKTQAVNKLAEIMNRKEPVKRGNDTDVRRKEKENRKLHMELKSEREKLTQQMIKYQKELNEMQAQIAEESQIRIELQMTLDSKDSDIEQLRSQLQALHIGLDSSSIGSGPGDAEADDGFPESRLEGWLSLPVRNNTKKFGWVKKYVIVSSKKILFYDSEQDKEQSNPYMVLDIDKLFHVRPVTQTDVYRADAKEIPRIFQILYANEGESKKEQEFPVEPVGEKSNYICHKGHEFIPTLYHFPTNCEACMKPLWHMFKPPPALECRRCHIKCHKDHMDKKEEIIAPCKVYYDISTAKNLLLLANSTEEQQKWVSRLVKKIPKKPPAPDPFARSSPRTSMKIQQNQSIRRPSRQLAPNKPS
- test.description: ROCK2 kinase binding affinity, DiscoverX KINOMEscan KdELECT
List of Kd values.
outcome.measure: Kd

INSERT INTO assay_data (smiles_string, result) VALUES
  ('C[C@H](O)CNc1nccc(-c2nccc(C#Cc3ccc4[nH]ncc4c3)n2)n1', '100 to 990 nM'),
  ('O[C@H]1CC[C@@H](Nc2nccc(-c3nccc(C#Cc4ccc5[nH]cnc5c4)n3)n2)CC1', '10 to 99 nM'),
  ('C[C@@H](O)CNc1nccc(-c2nccc(C#Cc3ccc4[nH]ncc4c3)n2)n1', '10 to 99 nM'),
  ('COCCNc1nccc(-c2nccc(C#Cc3ccc4[nH]ncc4c3)n2)n1', '< 10 nM');
